# Study Target: Beta-lactamase VIM-2 (Pseudomonas aeruginosa)
# Assay: Inhibition of Pseudomonas aeruginosa 3015473 beta lactamase VIM-2 transfected in negative Escherichia coli SNO3 cells assessed as substrate hydrolysis using nitrocefin as substrate at 250 uM incubated for 20 mins measured every 1 mins for 3 hrs by cell-based microplate spectrophotometry analysis relative to control
What inhibition was measured for each of the following?

Lab note: each compound below needs its inhibition filled in.
1. COCc1nn[nH]c1CNS(=O)(=O)c1ccc(I)cc1
2. O=S(=O)(NCc1[nH]nnc1CNC12CC3CC(CC(C3)C1)C2)c1ccc(I)cc1

1. 51%
2. 96%

Lab note: each compound below needs its inhibition filled in.
1. Cc1ccc(S(=O)(=O)NCc2[nH]nnc2CNC23CC4CC(CC(C4)C2)C3)cc1
2. O=S(=O)(NCc1[nH]nnc1CNC(c1ccccc1)(c1ccccc1)c1ccccc1)c1ccc(I)cc1
3. NCc1nn[nH]c1CNS(=O)(=O)c1ccccc1

1: 84%; 2: 19%; 3: 29%

These measurements were taken from ChEMBL document CHEMBL4725280.
